Item-by-item account of ED90, concentration required to kill 90% of HT29 cells with BCNU
System: HT29 cells
Details: BCNU 40 μM; Dulbecco's medium; inactivator present before, during and after BCNU for 16-18 hours
Marks after values point to notes of the source that are not given here.

Here's what some known entries look like.
compound | reported value
Cc1nc2nc(N)nc(OCc3ccccc3)c2nc1C | 0.6^b μM
Nc1nc(OCc2ccccc2)c2nccnc2n1 | 0.2^b μM
Nc1nc(OCc2ccccc2)c2nc(CO)cnc2n1 | 0.7^b μM

Item under review: Nc1nc(OCc2ccccc2)c2nc[nH]c2n1 [O^6-benzylguanine, reference compound] . Reported ED90, concentration required to kill 90% of HT29 cells with BCNU?
0.4^b μM
